The following compounds are listed with their measured log10 of Ki values.
target: cannabinoid CB1 receptor (Mus musculus, UniProt P47746); construct: Whole brains from eight adult male mice were dissected and suspended in centrifugation buffer; from tissue; host or cells: mouse whole brain membranes; assay: Mouse brain competition binding assay, [3H]CP55940 displacement; details: mouse brain membranes, [3H]CP55940 0.7 nM; read-out: Ki (nM) [affinity] Mouse Brain [3H]CP55940 Displacement
Sequence (P47746 whole entry): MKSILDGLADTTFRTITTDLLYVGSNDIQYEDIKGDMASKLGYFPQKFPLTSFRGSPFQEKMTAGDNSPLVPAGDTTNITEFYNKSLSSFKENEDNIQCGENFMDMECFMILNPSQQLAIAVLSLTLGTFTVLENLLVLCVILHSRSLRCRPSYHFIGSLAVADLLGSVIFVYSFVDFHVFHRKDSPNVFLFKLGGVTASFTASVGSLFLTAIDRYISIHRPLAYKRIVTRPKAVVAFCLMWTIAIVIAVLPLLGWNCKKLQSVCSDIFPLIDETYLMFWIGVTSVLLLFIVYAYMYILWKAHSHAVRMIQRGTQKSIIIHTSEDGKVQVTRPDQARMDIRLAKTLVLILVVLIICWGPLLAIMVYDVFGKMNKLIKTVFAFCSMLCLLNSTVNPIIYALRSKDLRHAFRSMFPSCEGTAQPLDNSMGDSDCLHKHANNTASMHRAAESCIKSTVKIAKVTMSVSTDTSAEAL
Remember, log10 of Ki, in nM.

The reported value for Cc1c(C(=O)c2cccc(F)c2)nn(-c2ccc(Cl)cc2Cl)c1-c1ccc(Cl)cc1 [ABD453] in terms of log10 of Ki is 1.14

The reported value for COc1ccc(C(=O)c2nn(-c3ccc(Cl)cc3Cl)c(-c3ccc(Br)cc3)c2C)cc1 [ABD459] in terms of log10 of Ki is 0.93

The reported value for Cc1c(C(=O)CC2CCCCC2)nn(-c2ccc(Cl)cc2Cl)c1-c1ccc(Cl)cc1 [ABD395] in terms of log10 of Ki is 0.58

Next:
The reported value for Cc1c(C(=O)Cc2ccc(F)cc2)nn(-c2ccc(Cl)cc2Cl)c1-c1ccc(Cl)cc1 [ABD436] in terms of log10 of Ki is 0.85

The reported value for Cc1c(C(=O)c2ccc(F)cc2)nn(-c2ccc(Cl)cc2Cl)c1-c1ccc(Cl)cc1 [ABD450] in terms of log10 of Ki is 1.80

###

target: CB1 receptor (Homo sapiens, UniProt P21554); assay: [35S]GTPγS binding, compound alone, 24 hours FBS-starved CB1 CHO cells; type: biochemical; conditions: 1 nM to 10 μM
Sequence (P21554 whole entry): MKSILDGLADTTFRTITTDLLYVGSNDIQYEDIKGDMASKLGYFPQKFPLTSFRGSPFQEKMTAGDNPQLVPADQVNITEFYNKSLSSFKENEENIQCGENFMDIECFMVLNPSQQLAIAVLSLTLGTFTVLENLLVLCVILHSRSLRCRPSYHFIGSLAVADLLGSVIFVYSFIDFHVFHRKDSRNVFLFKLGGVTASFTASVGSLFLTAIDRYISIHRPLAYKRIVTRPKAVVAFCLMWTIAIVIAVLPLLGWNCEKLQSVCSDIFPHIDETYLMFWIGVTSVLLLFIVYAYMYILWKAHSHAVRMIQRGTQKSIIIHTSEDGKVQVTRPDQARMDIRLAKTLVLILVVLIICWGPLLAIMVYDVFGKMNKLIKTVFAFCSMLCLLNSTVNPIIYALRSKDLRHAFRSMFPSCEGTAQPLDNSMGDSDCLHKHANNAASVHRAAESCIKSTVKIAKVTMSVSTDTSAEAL
quantity measured: Effect on [35S]GTPγS binding, compound alone

Entry `Cc1c(C(=O)Cc2ccccc2)nn(-c2ccc(Cl)cc2Cl)c1-c1ccc(Cl)cc1` , tested on CB1 receptor (Homo sapiens, UniProt P21554), has a reported Effect on [35S]GTPγS binding, compound alone of no reduction

Entry `Cc1c(C(=O)CC2CCCCC2)nn(-c2ccc(Cl)cc2Cl)c1-c1ccc(Br)cc1` , tested on CB1 receptor (Homo sapiens, UniProt P21554), has a reported Effect on [35S]GTPγS binding, compound alone of no reduction

Entry Cc1c(C(O)CC2CCCCC2)nn(-c2ccc(Cl)cc2Cl)c1-c1ccc(Br)cc1 (stereo not shown) , tested on CB1 receptor (Homo sapiens, UniProt P21554), has a reported Effect on [35S]GTPγS binding, compound alone of no reduction

###

molecular target: cannabinoid CB1 receptor (Mus musculus, UniProt P47746); construct: Whole brains from eight adult male mice were dissected and suspended in centrifugation buffer; from tissue; host or cells: mouse whole brain membranes; assay: Mouse brain competition binding assay, [3H]CP55940 displacement
// NB: equality with 10 nM counts as f; only Ki strictly below is t

Consider the worked cases shown below.
Query: Lab note: confirm whether the reported Ki for this compound is below 10 nM, equality not counting. compound: `Cc1c(C(=O)c2cccc(C(F)(F)F)c2)nn(-c2ccc(Cl)cc2Cl)c1-c1ccc(Cl)cc1`
Reply: f

Query: Lab note: confirm whether the reported Ki for this compound is below 10 nM, equality not counting. compound: `Cc1cccc(CC(=O)c2nn(-c3ccc(Cl)cc3Cl)c(-c3ccc(Cl)cc3)c2C)c1`
Reply: t

Query: Lab note: confirm whether the reported Ki for this compound is below 10 nM, equality not counting. compound: `Cc1ccc(C(=O)c2nn(-c3ccc(Cl)cc3Cl)c(-c3ccc(Cl)cc3)c2C)cc1C`
Reply: f

Query: Lab note: confirm whether the reported Ki for this compound is below 10 nM, equality not counting. compound: `Cc1c(C(=O)CC2CCCCC2)nn(-c2ccc(Cl)cc2Cl)c1-c1ccc(Br)cc1`
Reply: f

Query: Lab note: confirm whether the reported Ki for this compound is below 10 nM, equality not counting. compound: Cc1c(C(O)CC2CCCCC2)nn(-c2ccc(Cl)cc2Cl)c1-c1ccc(Br)cc1 (stereo not drawn)
Reply: f

Now let's try a different one.
Query: Lab note: confirm whether the reported Ki for this compound is below 10 nM, equality not counting. compound: `COc1cccc(C(=O)c2nn(-c3ccc(Cl)cc3Cl)c(-c3ccc(Br)cc3)c2C)c1`
Reply: t
